target: Arginase-2, mitochondrial (Homo sapiens); test: in vitro enzyme assay to detect the production of urea directly proportional to the activity of Arginase II; format: functional; set-up: scale not given: in the data most compounds retested in dose-response had high values; settings: 33.3 µM
Below is a list of entries, each paired with its recorded Percent Effect value.
OUTCOME MEASURE: Percent Effect (%)

>>> measured_result("Cc1ncsc1C(=O)NC1CCN(CC(=O)N(C)c2ccccc2)CC1")
-0.719
>>> measured_result("CC[C@@H]1N(Cc2ccsc2)CCC[C@]12CCC(=O)N2C")
1.37
>>> measured_result("CCN1CCO[C@]2(CCC[C@H]2COCc2csc(C)n2)C1")
-7.29
>>> measured_result("CCn1nc(C(=O)N2CCCC(n3cncn3)C2)ccc1=O (stereo unspecified)")
2.74
>>> measured_result("c1cnn(CCN2CCOC(Cn3cncn3)C2)c1 (stereo unspecified)")
3.8
>>> measured_result("CC(NC(=O)Cc1cccs1)c1nnc2n1CCCCC2 (stereo unspecified)")
-1.66

====

target: Protein translocase subunit SecA (Escherichia coli (strain K12)); assay: Assay to Identify E. coli SecA ATPase Inhibitors; assay type: functional; set-up: scale not given: direction of the effect not stated beside the values; conditions: 30 µM
Potency and affinity values are given separately.
OUTCOME MEASURE: Percent Effect (%)

>>> measured_result("c1cnn(CC2CCCN2Cc2nc(-c3ccoc3)no2)c1 (stereo unspecified)")
-4.7
>>> measured_result("CN(C)CCO[C@@H]1CC[C@H]2[C@H]1OCCN2C(=O)CCc1ccccc1")
-1.21
>>> measured_result("Cc1nnc2n1CCN(CCOc1ccccc1)C2")
-2.71
>>> measured_result("Cc1nc(C)n(CC2CCCN(CC(=O)Nc3nncs3)C2)n1 (stereo unspecified)")
-2.17
>>> measured_result("Cc1ccc(S(=O)(=O)N2CCOc3ccccc32)cc1C(N)=O")
-0.964
>>> measured_result("CC(C)(C)c1nnc(CN2CCN(S(C)(=O)=O)CC2)o1")
-2.63

====

target: Ubiquitin-activating enzyme e1, putative (Leishmania donovani (strain BPK282A1)) (UniProt E9BSI1); assay: Leishmania donovani Ubiquitin Activating Enzyme (LdE1); format: functional; design: scale not given: direction of the effect not stated beside the values; settings: 30 µM
Sequence (E9BSI1 as listed by the source): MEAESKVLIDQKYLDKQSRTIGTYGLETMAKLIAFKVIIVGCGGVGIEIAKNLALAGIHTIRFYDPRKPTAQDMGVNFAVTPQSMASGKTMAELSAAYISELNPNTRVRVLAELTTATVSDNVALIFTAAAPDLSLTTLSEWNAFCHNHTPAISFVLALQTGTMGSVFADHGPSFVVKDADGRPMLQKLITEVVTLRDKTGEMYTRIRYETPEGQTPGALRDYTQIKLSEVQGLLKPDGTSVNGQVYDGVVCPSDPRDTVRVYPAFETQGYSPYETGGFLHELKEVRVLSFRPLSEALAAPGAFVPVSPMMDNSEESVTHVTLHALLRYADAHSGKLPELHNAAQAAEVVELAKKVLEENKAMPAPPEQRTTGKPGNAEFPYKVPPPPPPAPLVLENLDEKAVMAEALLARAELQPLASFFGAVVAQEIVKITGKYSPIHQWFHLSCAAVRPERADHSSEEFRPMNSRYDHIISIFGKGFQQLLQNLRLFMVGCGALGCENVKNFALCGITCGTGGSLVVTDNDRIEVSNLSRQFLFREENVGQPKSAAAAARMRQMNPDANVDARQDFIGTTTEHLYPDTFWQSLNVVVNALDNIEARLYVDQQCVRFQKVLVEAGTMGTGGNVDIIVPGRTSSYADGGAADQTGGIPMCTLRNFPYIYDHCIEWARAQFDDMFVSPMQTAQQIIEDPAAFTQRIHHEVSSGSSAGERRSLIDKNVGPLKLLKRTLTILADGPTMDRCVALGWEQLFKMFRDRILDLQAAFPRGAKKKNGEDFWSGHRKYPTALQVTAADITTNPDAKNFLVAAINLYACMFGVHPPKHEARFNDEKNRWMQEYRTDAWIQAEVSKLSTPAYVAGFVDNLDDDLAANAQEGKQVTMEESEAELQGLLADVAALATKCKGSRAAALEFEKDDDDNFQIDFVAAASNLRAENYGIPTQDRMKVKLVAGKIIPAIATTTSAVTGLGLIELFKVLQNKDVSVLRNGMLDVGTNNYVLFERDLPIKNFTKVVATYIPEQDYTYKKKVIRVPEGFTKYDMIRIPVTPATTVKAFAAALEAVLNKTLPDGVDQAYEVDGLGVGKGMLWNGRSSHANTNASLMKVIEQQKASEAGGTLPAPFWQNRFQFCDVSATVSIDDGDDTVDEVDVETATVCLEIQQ
Potency and affinity values are given separately.
OUTCOME MEASURE: Percent Effect

>>> measured_result("Cc1nc(CN2CCC(N(C)Cc3noc(C4CC4)n3)C2)oc1C (stereo unspecified)")
"18.2%"
>>> measured_result("Cc1nccn1C1CCCN(C(=O)c2ccc3c(c2)NC(=O)CO3)C1 (stereo unspecified)")
"2.7%"
>>> measured_result("CN1CC[C@H](c2ccccc2)[C@@H]2[C@H]1CCCCN2C(=O)c1cnccn1")
"-4.05%"
>>> measured_result("Cc1c[nH]nc1C1CCCCN1C(=O)Cn1cc(Cl)cn1 (stereo unspecified)")
"14.7%"
>>> measured_result("Cn1cc(C(=O)NC2CCN(C(=O)NCC3CCSCC3)CC2)cn1")
"6.33%"
>>> measured_result("Cc1ccc(CN2CCCn3nnc(COCC4CC4)c3C2)s1")
"16%"
>>> measured_result("CCOC1COC2(CCN(Cc3ccc4c(c3)OCO4)CC2)C1 (stereo unspecified)")
"19.5%"
>>> measured_result("Fc1ccccc1Cc1noc(CN2CCCC(CN3CCCC3)C2)n1 (stereo unspecified)")
"-2.7%"
>>> measured_result("Cc1nn(-c2ccccc2)cc1C(=O)N1CCCN2CCCC2C1 (stereo unspecified)")
"10.7%"
>>> measured_result("CN(Cc1ccccc1Br)C(=O)Cn1nc(-c2ccc(F)cc2)oc1=O")
"-5.26%"
>>> measured_result("COc1ccc(C2CC(=O)Nc3c2nc2n3CCCC2)cc1OC (stereo unspecified)")
"8.11%"
